B1: CLPTM1 (parent)
chain: MNLHVYISEHEHFTDFNATSALFW

Variants of: B1
PROTOCOL: protein stability index of a GFP-peptide fusion (GPS, HEK-293T) (PSI 1-6); higher = more stable;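 also: lentivirally expressed fusions sorted by FACS into six bins by GFP to DsRed ratio, PSI derived from sequencing read proportions per bin multiplied by bin number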
TEST_CONDITIONS: c terminus: a fixed tail appended
// map protein stability index to label using low group = under 2, middle group = from 2 up to 3, high group = 3 and over

Examples with answers:
- MNLHVYISEHEHFTDFNATSAGFW [L22G]: high group
- MNLHVYISEPEHFTDFNATSALFW [H10P]: middle group

**Query** Class (by measured protein stability index) for MNLHVYISEHEHFTDFNATSATFW [L22T]
**Result** high group

**Query** Class (by measured protein stability index) for MNLQVYISEHEHFTDFNATSALFW [H4Q]
**Result** middle group

**Query** Class (by measured protein stability index) for MNLHVYISEHEHFVDFNATSALFW [T14V]
**Result** low group

**Query** Class (by measured protein stability index) for MNLHVYISEHEHFTDFNATSALIW [F23I]
**Result** high group

**Query** Class (by measured protein stability index) for DNLHVYISEHEHFTDFNATSALFW [M1D]
**Result** low group

**Query** Class (by measured protein stability index) for MNLHVYISEHEHFTDFGATSALFW [N17G]
**Result** middle group
